Quick list: Ki per entry.
molecular target: 5-HT2A receptor (Rattus norvegicus); experiment: 5-HT2A competition binding assay ([3H]ketanserin, frontal cortex homogenates); details: read-out: 5-HT2A Ki (95% CI)
Sequence (P14842 whole entry): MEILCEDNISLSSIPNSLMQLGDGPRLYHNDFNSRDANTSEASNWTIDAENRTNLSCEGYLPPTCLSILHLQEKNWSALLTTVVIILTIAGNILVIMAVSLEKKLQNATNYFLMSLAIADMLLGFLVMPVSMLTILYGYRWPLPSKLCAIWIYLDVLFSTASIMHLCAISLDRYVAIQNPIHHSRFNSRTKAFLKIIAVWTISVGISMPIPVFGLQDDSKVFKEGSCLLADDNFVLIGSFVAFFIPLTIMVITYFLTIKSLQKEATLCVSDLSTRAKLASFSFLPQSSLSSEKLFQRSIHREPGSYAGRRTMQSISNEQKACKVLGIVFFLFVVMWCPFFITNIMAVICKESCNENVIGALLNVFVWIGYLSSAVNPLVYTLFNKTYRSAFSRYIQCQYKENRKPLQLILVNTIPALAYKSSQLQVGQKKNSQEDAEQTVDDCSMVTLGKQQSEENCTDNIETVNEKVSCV
API: value field is a number in nM; no unit string.

O=C(NCCCN1CCN(c2ccc(Cl)cc2)CC1)C1CC2C=CC1C2 (centres unmarked) [Norbo-11]: 149

Consider the compound shown here: O=C(NCCCN1CCN(c2ccccc2)CC1)C1CC2C=CC1C2 (centres unmarked) [Norbo-2] What is its recorded Ki?
99.1

Consider the compound shown here: O=C(NCCCN1CCN(c2ccc(Cl)cc2)CC1)C1CC2C=CC1C2 (centres unmarked) [Norbo-12] What is its recorded Ki?
227

Consider the compound shown here: O=C(NCCCN1CCN(c2ccccn2)CC1)C1CC2C=CC1C2 (centres unmarked) [Norbo-21] What is its recorded Ki?
258

Consider the compound shown here: O=C(NCCCN1CCN(C(=O)c2ccco2)CC1)C1CC2C=CC1C2 (centres unmarked) [Norbo-28] What is its recorded Ki?
1070

----------
molecular target: UniProt:P14842; assay: 5-HT2A competition binding assay ([3H]ketanserin, frontal cortex homogenates); conditions: read-out: 5-HT2A Ki (95% CI)
One threshold, 80 nM, splits the recorded Ki values: lower ones are true, equal or higher ones are false.

Record excerpt, results attached:
Cc1cccc(N2CCN(CCCNC(=O)C3CC4C=CC3C4)CC2)c1C (centres unmarked) [Norbo-4]: true
O=C(NCCCN1CCN(c2ccc(Cl)c(Cl)c2)CC1)C1CC2C=CC1C2 (centres unmarked) [Norbo-13]: true
O=C(NCCCN1CCN(Cc2ccc3c(c2)OCO3)CC1)C1CC2C=CC1C2 (centres unmarked) [Norbo-26]: false
O=C(NCCCN1CCN(c2cccc(C(F)(F)F)c2)CC1)C1CC2C=CC1C2 (centres unmarked) [Norbo-19]: true
COc1ccccc1N1CCN(CCCNC(=O)C2CC3C=CC2C3)CC1 (single isomer, unassigned) [Norbo-6]: false

Answer whether the compound O=C(NCCCN1CCN(c2ccccc2Cl)CC1)C1CC2C=CC1C2 (centres unmarked) [Norbo-9] has Ki strictly less than 80 nM
false

Answer whether the compound O=C(NCCCN1CCN(c2cccc(C(F)(F)F)c2)CC1)C1CC2C=CC1C2 (centres unmarked) [Norbo-20] has Ki strictly less than 80 nM
true

Answer whether the compound COc1ccc(N2CCN(CCCNC(=O)C3CC4C=CC3C4)CC2)cc1 (centres unmarked) [Norbo-7] has Ki strictly less than 80 nM
false

Answer whether the compound O=C(NCCCN1CCN(c2ccc(F)cc2)CC1)C1CC2C=CC1C2 (centres unmarked) [Norbo-17] has Ki strictly less than 80 nM
true

----------
target: D2 receptor (Rattus norvegicus, UniProt P61169); construct: 15μg/mL of striatal homogenate was incubated in triplicate; from tissue; host or cells: rat striatum homogenate; assay: Functional D2 receptor [35S]GTPγS assay (antagonist mode vs dopamine; basal for agonism); format: biochemical; conditions: against 40 µM dopamine, rat striatal homogenate; read-out: D2 receptor antagonistic activity IC50 (95% CI);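 further: [35S]GTPγS binding counted by scintillation after 60 min at 30 °C, nonspecific binding defined with 100 µM unlabeled GTPγS, inhibition curves fitted by one-site nonlinear regression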
Sequence (P61169 whole entry): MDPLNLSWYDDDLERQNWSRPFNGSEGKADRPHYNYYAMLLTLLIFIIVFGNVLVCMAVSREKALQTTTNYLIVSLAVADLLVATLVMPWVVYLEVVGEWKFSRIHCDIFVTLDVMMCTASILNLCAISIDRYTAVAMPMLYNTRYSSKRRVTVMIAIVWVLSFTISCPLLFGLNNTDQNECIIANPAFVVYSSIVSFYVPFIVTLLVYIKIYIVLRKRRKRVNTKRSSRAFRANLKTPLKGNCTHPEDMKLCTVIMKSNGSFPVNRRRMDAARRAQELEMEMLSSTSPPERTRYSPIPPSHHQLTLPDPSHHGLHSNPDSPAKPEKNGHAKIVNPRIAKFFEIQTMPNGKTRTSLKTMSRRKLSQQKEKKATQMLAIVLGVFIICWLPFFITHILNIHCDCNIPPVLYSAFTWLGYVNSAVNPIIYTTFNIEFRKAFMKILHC
pIC50: −log10 of the molar value.
Each entry gets class 0 if its pIC50 stays under 4, and class 1 if its pIC50 is 4 or above.

Record excerpt, results attached:
O=C(NCCCN1CCN(c2ccc(F)cc2)CC1)C1CC2C=CC1C2 (stereo not drawn) [Norbo-17]: class 1
O=C(NCCCN1CCN(c2ncccn2)CC1)C1CC2C=CC1C2 (stereo not drawn) [Norbo-24]: class 0
O=C(NCCCN1CCN(c2ccccc2Cl)CC1)C1CC2C=CC1C2 (stereo not drawn) [Norbo-9]: class 1

Please examine the following record next.
Hello, I need to know if O=C(NCCCN1CCN(c2ccccn2)CC1)C1CC2C=CC1C2 (stereo not drawn) [Norbo-21] has measured pIC50 not below 4. Thanks!
class 0

----------
Target: human 5-HT2C receptor (Homo sapiens, UniProt P28335)
Sequence (P28335 33-458): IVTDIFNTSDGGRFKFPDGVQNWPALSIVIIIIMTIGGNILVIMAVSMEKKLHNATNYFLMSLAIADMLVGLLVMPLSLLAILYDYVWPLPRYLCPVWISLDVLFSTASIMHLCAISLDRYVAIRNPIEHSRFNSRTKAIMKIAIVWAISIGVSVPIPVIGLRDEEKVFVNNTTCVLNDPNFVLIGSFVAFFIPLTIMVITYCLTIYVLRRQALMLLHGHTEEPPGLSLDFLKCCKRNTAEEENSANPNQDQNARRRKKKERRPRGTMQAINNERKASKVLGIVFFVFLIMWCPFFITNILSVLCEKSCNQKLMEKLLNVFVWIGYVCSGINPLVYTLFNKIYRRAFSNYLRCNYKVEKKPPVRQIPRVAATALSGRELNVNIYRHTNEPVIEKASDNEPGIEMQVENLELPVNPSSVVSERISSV
Assay: 5-HT2C competition binding assay ([3H]mesulergine, transfected cell membranes)
Conditions: [3H]mesulergine, human 5-HT2C membranes; read-out: 5-HT2C Ki (95% CI)
Quick list: Ki per entry.
API: value field is a number in µM; no unit string.

Consider the worked cases shown below.
COc1ccccc1N1CCN(CCCNC(=O)C2CC3C=CC2C3)CC1 (single isomer, unassigned) [Norbo-5]: 1.82
O=C(NCCCN1CCN(c2ncccn2)CC1)C1CC2C=CC1C2 (stereo not drawn) [Norbo-23]: 0.353
Cc1cccc(N2CCN(CCCNC(=O)C3CC4C=CC3C4)CC2)c1C (stereo not drawn) [Norbo-4]: 2.09
O=C(NCCCN1CCN(c2ccccc2)CC1)C1CC2C=CC1C2 (stereo not drawn) [Norbo-2]: 1.61
O=C(NCCCN1CCN(c2ccc(Cl)c(Cl)c2)CC1)C1CC2C=CC1C2 (stereo not drawn) [Norbo-13]: 0.122

Consider the molecule shown here: O=C(NCCCN1CCN(c2ccc(Cl)cc2)CC1)C1CC2C=CC1C2 (stereo not drawn) [Norbo-12] What is its recorded Ki?
34.9

Consider the molecule shown here: O=C(NCCCN1CCN(c2ccccn2)CC1)C1CC2C=CC1C2 (stereo not drawn) [Norbo-22] What is its recorded Ki?
0.873

Consider the molecule shown here: O=C(NCCCN1CCN(c2ccc(Cl)c(Cl)c2)CC1)C1CC2C=CC1C2 (stereo not drawn) [Norbo-14] What is its recorded Ki?
3.64

----------
molecular target: 5-HT1A receptor (Rattus norvegicus, UniProt P19327); construct: 15 μg/mL of hippocampus homogenate was incubated in triplicate with 0.8 nM; from tissue; host or cells: rat hippocampus homogenate; assay: Functional 5-HT1A receptor [35S]GTPγS assay (agonist mode); format: biochemical; conditions: [35S]GTPγS, rat hippocampus homogenate; read-out: 5-HT1A Receptor G-Protein Stimulation Emax (%) ± SEM;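 further: male Sprague-Dawley rat hippocampal membranes incubated 90 min at 37 °C, bound label counted by scintillation after filtration, non-specific binding defined with 100 µM unlabeled GTPγS, one-site curve fit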
Quick list: Emax per entry.
API: value field is a number in %; no unit string.

Consider the worked cases shown below.
O=C(NCCCN1CCN(c2ccc(Cl)cc2)CC1)C1CC2C=CC1C2 (stereo not shown): 127
O=C(NCCCN1CCN(Cc2ccc3c(c2)OCO3)CC1)C1CC2C=CC1C2 (stereo not shown): 184
O=C(NCCCN1CCN(c2ccccc2Cl)CC1)C1CC2C=CC1C2 (stereo not shown): 149

GET /values?readout=Emax&system=5-HT1A receptor (Rattus norvegicus, UniProt P19327)&item= COc1ccccc1N1CCN(CCCNC(=O)C2CC3C=CC2C3)CC1 (single isomer, unassigned)
131

GET /values?readout=Emax&system=5-HT1A receptor (Rattus norvegicus, UniProt P19327)&item= COc1ccc(N2CCN(CCCNC(=O)C3CC4C=CC3C4)CC2)cc1 (stereo not shown)
169

GET /values?readout=Emax&system=5-HT1A receptor (Rattus norvegicus, UniProt P19327)&item= Cc1cccc(N2CCN(CCCNC(=O)C3CC4C=CC3C4)CC2)c1C (stereo not shown)
185

GET /values?readout=Emax&system=5-HT1A receptor (Rattus norvegicus, UniProt P19327)&item= O=C(NCCCN1CCN(c2ccccn2)CC1)C1CC2C=CC1C2 (stereo not shown)
181

GET /values?readout=Emax&system=5-HT1A receptor (Rattus norvegicus, UniProt P19327)&item= O=C(NCCCN1CCN(c2ncccn2)CC1)C1CC2C=CC1C2 (stereo not shown)
181

GET /values?readout=Emax&system=5-HT1A receptor (Rattus norvegicus, UniProt P19327)&item= O=C(NCCCN1CCN(c2ccccc2)CC1)C1CC2C=CC1C2 (stereo not shown)
174

GET /values?readout=Emax&system=5-HT1A receptor (Rattus norvegicus, UniProt P19327)&item= O=C(NCCCN1CCN(c2cccc(C(F)(F)F)c2)CC1)C1CC2C=CC1C2 (stereo not shown)
162

----------
Biological target: 5-HT1A receptor (Rattus norvegicus, UniProt P19327)
Construct: 15 μg/mL of hippocampus homogenate was incubated in triplicate with 0.8 nM; from tissue; host or cells: rat hippocampus homogenate
Sequence (P19327 1-422): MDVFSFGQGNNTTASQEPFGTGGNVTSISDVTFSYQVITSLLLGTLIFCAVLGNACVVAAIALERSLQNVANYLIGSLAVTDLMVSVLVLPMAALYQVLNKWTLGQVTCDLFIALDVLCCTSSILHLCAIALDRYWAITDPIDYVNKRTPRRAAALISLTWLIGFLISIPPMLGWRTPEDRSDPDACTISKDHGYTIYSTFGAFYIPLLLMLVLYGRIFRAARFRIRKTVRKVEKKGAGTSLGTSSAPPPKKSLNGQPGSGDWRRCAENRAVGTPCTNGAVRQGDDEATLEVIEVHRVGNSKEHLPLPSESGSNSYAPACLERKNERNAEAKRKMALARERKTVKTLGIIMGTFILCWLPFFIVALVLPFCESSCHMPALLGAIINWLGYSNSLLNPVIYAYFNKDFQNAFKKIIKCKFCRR
Assay: Functional 5-HT1A receptor [35S]GTPγS assay (agonist mode)
Type: biochemical
Conditions: [35S]GTPγS, rat hippocampus homogenate
Quick list: 5-HT1A Receptor G-Protein Stimulation Emax (%) ± SEM per entry.
API: value field is a number in %; no unit string.

Consider the worked cases shown below.
O=C(NCCCN1CCN(c2ccccc2)CC1)C1CC2C=CC1C2 (centres unmarked) [Norbo-2]: 188
O=C(NCCCN1CCN(c2cccc(C(F)(F)F)c2)CC1)C1CC2C=CC1C2 (centres unmarked) [Norbo-20]: 167
O=C(NCCCN1CCN(c2ccccn2)CC1)C1CC2C=CC1C2 (centres unmarked) [Norbo-22]: 186

Consider the compound shown here: O=C(NCCCN1CCN(c2ccccc2Cl)CC1)C1CC2C=CC1C2 (centres unmarked) [Norbo-10] What is its recorded 5-HT1A Receptor G-Protein Stimulation Emax (%) ± SEM?
163

Consider the compound shown here: COc1ccc(N2CCN(CCCNC(=O)C3CC4C=CC3C4)CC2)cc1 (centres unmarked) [Norbo-8] What is its recorded 5-HT1A Receptor G-Protein Stimulation Emax (%) ± SEM?
167

Consider the compound shown here: Cc1cccc(N2CCN(CCCNC(=O)C3CC4C=CC3C4)CC2)c1C (centres unmarked) [Norbo-4] What is its recorded 5-HT1A Receptor G-Protein Stimulation Emax (%) ± SEM?
181

Consider the compound shown here: O=C(NCCCN1CCN(c2ccccc2F)CC1)C1CC2C=CC1C2 (centres unmarked) [Norbo-15] What is its recorded 5-HT1A Receptor G-Protein Stimulation Emax (%) ± SEM?
161
